Value source: patent US20220265821A1

Catalogue of binders with associated pEC50
Target: T1, human VpreB (on the pre-BCR-expressing human pre-B cell line NALM-6) (human, UniProt P12018 20-145)
T1 construct: On NALM-6 cells VpreB stands in the pre-BCR together with lambda-5 and the mu heavy chain; also called VPREB1; VpreB subunit of the SLC of human pre-BCR
T1 sequence: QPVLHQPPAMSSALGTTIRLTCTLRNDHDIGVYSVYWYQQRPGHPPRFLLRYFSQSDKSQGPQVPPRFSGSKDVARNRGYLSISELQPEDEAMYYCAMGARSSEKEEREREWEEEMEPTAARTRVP
Assay: flow cytometry, saturation binding of recombinant chimeric mAb to NALM-6 cells
pEC50: −log10 of the molar value.

Binder: VpreB antibody 5-11D1 (recombinant mouse-human chimeric IgG1/kappa) (antibody, V domains shown, also called mAb 5-11D1) VH: EVQLEESGPSLVKPSQTLSLTCSVTGDSITSDYWTWIRKFPGNKLEYMGYISYSGRTYYNPSLKSRISITRDTSRNQYYLQLSSVTTEDTATYYCARERYYYGSLDYWGQGTTLTVSS VL: DVLMTQTPLSLPVSLGDQASISCRSSQSLVHSNGNTYLHWYLQKPGQSPKLLIYKVSNRFSGVPDRFSGSGSGTDFTLKISRVEAEDLGVYFCSQTTHVPPTFGGGTKLEIKR
pEC50: > 9.40
--
Binder: VpreB antibody 5-14A8 (recombinant mouse-human chimeric IgG1/kappa) (antibody, V domains shown, also called mAb 5-14A8) VH: EVQLEESGPSLVKPSQTLSLTCSVTGDSITSDYWTWIRKFPGNILEYMGYISSSGRIYYNPSLKSRISITRDTSKNQYYLQLSSVTTEDTATYYCARERYYYGSLDYWGQGTTLTVSS VL: DVLMTQTPLSLPVSLGDQASISCRSSQGLVHSNGNTYLHWYLQKPGQSPKLLIYKVSNRFSGVPDRFSGSGSGTDFTLKISRVEAEDLGVYFCSQTTHVPPTFGGGTKLEIKR
pEC50: > 9.40
